# System: Mycobacterium tuberculosis
# experimentDescription: Antitubercular activity against extensively drug resistant Mycobacterium tuberculosis clinical isolate 4 by resazurin microtitre assay
# Type: functional
quantityKind: MIC (µg/mL)
The figure you give is taken to be in µg/mL; do not add the unit.

CN[C@@H]1[C@H](O[C@H]2[C@H](O[C@H]3[C@H](O)[C@@H](O)[C@H](N=C(N)N)[C@@H](O)[C@@H]3N=C(N)N)O[C@@H](C)[C@]2(O)C=O)O[C@@H](CO)[C@H](O)[C@H]1O [STREPTOMYCIN] :: 0.78

[ask] If you can, please state the reported MIC value of `CCN(CC)CCOc1c(C(=O)OC)c2c3c(oc2c2ccccc12)C(=O)c1ccccc1C3=O` .
[reply] 0.19

[ask] If you can, please state the reported MIC value of CO[C@H]1/C=C/O[C@@]2(C)Oc3c(C)c(O)c4c(O)c(c(/C=N/N5CCN(C)CC5)c(O)c4c3C2=O)NC(=O)/C(C)=C\C=C\[C@H](C)[C@H](O)[C@@H](C)[C@@H](O)[C@@H](C)[C@H](OC(C)=O)[C@@H]1C [RIFAMPIN] .
[reply] 6.25

[ask] If you can, please state the reported MIC value of CC[C@@H](CO)NCCN[C@@H](CC)CO [ETHAMBUTOL] .
[reply] 6.25

[ask] If you can, please state the reported MIC value of NNC(=O)c1ccncc1 [ISONIAZID] .
[reply] 12.5

###

# Tested on: Mycobacterium tuberculosis
# experimentDescription: Antitubercular activity against multidrug resistant Mycobacterium tuberculosis clinical isolate 10 by resazurin microtitre assay
# Type: functional
quantityKind: MIC (µg/mL)
The figure you give is taken to be in µg/mL; do not add the unit.

Please review the entries below; each comes with its answer.
CC[C@@H](CO)NCCN[C@@H](CC)CO :: 0.78
CO[C@H]1/C=C/O[C@@]2(C)Oc3c(C)c(O)c4c(O)c(c(/C=N/N5CCN(C)CC5)c(O)c4c3C2=O)NC(=O)/C(C)=C\C=C\[C@H](C)[C@H](O)[C@@H](C)[C@@H](O)[C@@H](C)[C@H](OC(C)=O)[C@@H]1C :: 3.13
NNC(=O)c1ccncc1 :: 3.13

API: the following record is the query input.
[ask] If you can, please state the reported MIC value of `CCN(CC)CCOc1c(C(=O)OC)c2c3c(oc2c2ccccc12)C(=O)c1ccccc1C3=O` .
[reply] 0.02

###

# Test system: Mycobacterium tuberculosis
# experimentDescription: Antitubercular activity against multidrug resistant Mycobacterium tuberculosis clinical isolate 7 by resazurin microtitre assay
# Format: functional
Each record here notes measured MIC.

Please review the entries below; each comes with its answer.
CN[C@@H]1[C@H](O[C@H]2[C@H](O[C@H]3[C@H](O)[C@@H](O)[C@H](N=C(N)N)[C@@H](O)[C@@H]3N=C(N)N)O[C@@H](C)[C@]2(O)C=O)O[C@@H](CO)[C@H](O)[C@H]1O [STREPTOMYCIN] :: 200 µg/mL
CCN(CC)CCOc1c(C(=O)OC)c2c3c(oc2c2ccccc12)C(=O)c1ccccc1C3=O :: 0.02 µg/mL
NNC(=O)c1ccncc1 [ISONIAZID] :: 50 µg/mL
NC(=O)c1cnccn1 [PYRAZINAMIDE] :: > 200 µg/mL
CO[C@H]1/C=C/O[C@@]2(C)Oc3c(C)c(O)c4c(O)c(c(/C=N/N5CCN(C)CC5)c(O)c4c3C2=O)NC(=O)/C(C)=C\C=C\[C@H](C)[C@H](O)[C@@H](C)[C@@H](O)[C@@H](C)[C@H](OC(C)=O)[C@@H]1C [RIFAMPIN] :: > 200 µg/mL

API: the following record is the query input.
[ask] If you can, please state the reported MIC value of CC[C@@H](CO)NCCN[C@@H](CC)CO [ETHAMBUTOL] .
[reply] 6.25 µg/mL

###

# System: Mycobacterium tuberculosis
# experimentDescription: Antimycobacterial activity against isoniazid, rifampicin, ethambutol, pyrazinamide, streptomycin, capreomycin, amikacin, kanamycin, ofloxacin, and ethionamide resistant Mycobacterium tuberculosis clinical isolate incubated for 7 days by resazurin microtitre assay
# Assay type: functional
# details: 168 h, time 7 day
quantityKind: MIC (µM)
The figure you give is taken to be in µM; do not add the unit.

Please review the entries below; each comes with its answer.
CC(=O)N1/C(=C/c2ccc(-c3ccc(C)cc3)cc2)C(=O)c2ccccc21 :: 17.7
CC(=O)N1/C(=C/c2ccc(-c3ccccc3)cc2)C(=O)c2ccccc21 :: 12.3
CC(=O)N1/C(=C/c2ccc(-c3ccc(Cl)cc3)cc2)C(=O)c2ccccc21 :: 8.37

[ask] Hello, I am looking for reported MIC with Mycobacterium tuberculosis for `CC(=O)N1/C(=C/c2ccc(Br)cc2)C(=O)c2ccccc21` . Could you help?
[reply] 15.2

###

# Test system: Mycobacterium tuberculosis
# experimentDescription: Antimycobacterial activity against extensively-resistant Mycobacterium tuberculosis H37Rv assessed as inhibition of bacterial growth by alamar blue assay
# Format: functional
Each record here notes measured MIC.
The figure you give is taken to be in µg/mL; do not add the unit.

Cc1cc(O)n2nc(Nc3ccc(Cl)c(Cl)c3)c(C(N)=O)c2n1 :: 50

[ask] If you can, please state the reported MIC value of `NNC(=O)c1ccncc1` .
[reply] 50

[ask] If you can, please state the reported MIC value of `Cc1cc(O)n2nc(Nc3ccc(F)c(F)c3)c(C(=O)Nc3ccc(F)cc3)c2n1` .
[reply] 25

[ask] If you can, please state the reported MIC value of `COc1ccccc1NC(=O)c1c(Nc2cccc(C)c2)nn2c(O)cc(C)nc12` .
[reply] 12.5

###

# System: Mycobacterium tuberculosis
# experimentDescription: Antimycobacterial activity against isoniazid and rifampicin resistant Mycobacterium tuberculosis by broth dilution method
# Type: functional
Each record here notes measured log10 MIC.
All values: log10 MIC [µg/mL].

Please review the entries below; each comes with its answer.
C[C@]1(Cn2cc(COc3ccc(OC(F)(F)F)cc3)nn2)Cn2cc([N+](=O)[O-])nc2O1 :: 0.30
C[C@]1(Cn2cc(COc3ccccn3)nn2)Cn2cc([N+](=O)[O-])nc2O1 :: -0.60
CC(C)c1ccc(OCc2cn(C[C@@]3(C)Cn4cc([N+](=O)[O-])nc4O3)nn2)cc1 :: 0.00

[ask] If you can, please state the reported log10 MIC value of `Cc1ccc(OCc2cn(C[C@@]3(C)Cn4cc([N+](=O)[O-])nc4O3)nn2)cc1` .
[reply] 0.30

[ask] If you can, please state the reported log10 MIC value of `CCCCCc1cn(C[C@@]2(C)Cn3cc([N+](=O)[O-])nc3O2)nn1` .
[reply] 0.30

[ask] If you can, please state the reported log10 MIC value of `Cc1cccc(OCc2cn(C[C@@]3(C)Cn4cc([N+](=O)[O-])nc4O3)nn2)c1` .
[reply] 0.00

[ask] If you can, please state the reported log10 MIC value of `Cc1ccccc1OCc1cn(C[C@@]2(C)Cn3cc([N+](=O)[O-])nc3O2)nn1` .
[reply] 0.00

[ask] If you can, please state the reported log10 MIC value of `Cc1ccc(SCc2cn(C[C@@]3(C)Cn4cc([N+](=O)[O-])nc4O3)nn2)cc1` .
[reply] -0.30

[ask] If you can, please state the reported log10 MIC value of `Cc1cc(-c2cn(C[C@@]3(C)Cn4cc([N+](=O)[O-])nc4O3)nn2)ccc1F` .
[reply] 0.60

[ask] If you can, please state the reported log10 MIC value of `C[C@]1(Cn2cc(-c3ccc(F)cc3F)nn2)Cn2cc([N+](=O)[O-])nc2O1` .
[reply] 0.00

[ask] If you can, please state the reported log10 MIC value of `C[C@]1(Cn2cc(-c3ccc(F)cc3)nn2)Cn2cc([N+](=O)[O-])nc2O1` .
[reply] 0.30

[ask] If you can, please state the reported log10 MIC value of `C[C@]1(Cn2cc(COc3ccc(C(F)(F)F)cc3)nn2)Cn2cc([N+](=O)[O-])nc2O1` .
[reply] 0.60

[ask] If you can, please state the reported log10 MIC value of `Cc1ccc(OCCc2cn(C[C@@]3(C)Cn4cc([N+](=O)[O-])nc4O3)nn2)cc1` .
[reply] -0.60

###

# Test system: Mycobacterium tuberculosis
# experimentDescription: Antimycobacterial activity against multidrug-resistant Mycobacterium tuberculosis H37Rv assessed as inhibition of bacterial growth by alamar blue assay
# Assay type: functional
Each record here notes measured MIC.
The figure you give is taken to be in µg/mL; do not add the unit.

Please review the entries below; each comes with its answer.
Cc1cc(O)n2nc(Nc3ccc(Cl)c(Cl)c3)c(C(N)=O)c2n1 :: 12.5
COc1ccccc1NC(=O)c1c(Nc2cccc(C)c2)nn2c(O)cc(C)nc12 :: 6.25
Cc1cc(O)n2nc(Nc3ccc(F)c(F)c3)c(C(=O)Nc3ccc(F)cc3)c2n1 :: 3.12

[ask] Hello, I am looking for reported MIC with Mycobacterium tuberculosis for `Cc1ccc(NC(=O)c2c(Nc3ccc(Cl)cc3)nn3c(O)cc(C)nc23)cc1` . Could you help?
[reply] 6.25

[ask] Hello, I am looking for reported MIC with Mycobacterium tuberculosis for `NNC(=O)c1ccncc1` . Could you help?
[reply] 6.25
